target: p45 v-abl tyrosine kinase; test: p45 v-abl Kinase Assay ((Val^5)-Angiotensin II phosphorylation); settings: (Val^5)-Angiotensin II 2 mM, ATP 50 μM, pH 8.0, 30° C., read-out: Inhibition of p45 v-abl kinase IC50
ATTRIBUTE MEASURED: pIC50
pIC50 (log units): -log10 of the concentration in mol/L.

Here N#CC(=Cc1ccc(O)c2ncccc12)C(=O)Nc1ccccc1 was tested on p45 v-abl tyrosine kinase, and its pIC50 came to 5.47

Data provenance is patent US5652250A.
